- assay_info: in vitro
- condition_notes: PAMPA, pH 7.4, PAMPA Pe_avg
Positions of bridges follow the written chain, without caps; N, C: chain ends. Non-standard residues stand in square brackets, D forms with d. Residues, ends and D or L forms follow the SMILES beside them. NMeC = CN[C@@H](CS)C(=O)O; NMeA = CN[C@@H](C)C(=O)O; dAbu = CC[C@@H](N)C(=O)O; Nleu = CC(C)CNCC(=O)O
In this section we review reported Papp at 10 µM values for a set of molecules.
Write it as a number; the unit ×10⁻⁶ cm/s goes unstated.

INSERT INTO measurements (molecule, measured_quantity, value) VALUES
  ('CCOC(=O)[C@@H]1CSCC(=O)N[C@H](CC)C(=O)N(C)[C@@H](C)C(=O)N[C@@H](CC(C)C)C(=O)N2CCC[C@H]2C(=O)N(CC(C)C)CC(=O)N[C@@H](CC(C)C)C(=O)N(C)[C@@H](C)C(=O)N[C@@H](CC(C)C)C(=O)N1C [JF206_ALD_DLLL_Isobutyl] ({CH2CO}-[dAbu][NMeA]LP[Nleu]L[NMeA]L[NMeC]-OEt; thioether N-9)', 'Papp at 10 µM', 0.598);

Query molecule follows.
Record CCOC(=O)[C@@H]1CSCC(=O)N[C@H](CC)C(=O)N(C)[C@@H](C)C(=O)N[C@@H](CC(C)C)C(=O)N2CCC[C@H]2C(=O)N(CC(C)C)CC(=O)N[C@H](CC(C)C)C(=O)N(C)[C@@H](C)C(=O)N[C@@H](CC(C)C)C(=O)N1C [JF206_ALD_DLDL_Isobutyl] ({CH2CO}-[dAbu][NMeA]LP[Nleu][dL][NMeA]L[NMeC]-OEt; thioether N-9) . Reported Papp at 10 µM: 0.248
